These measurements were taken from PubChem BioAssay (NCI).

# Tested on: 786-0 renal
# Experimental protocol: NCI tumour cell line growth inhibition, 48 h
We begin with a simple list: items and their reported TGI.
Property measured: TGI (µM)

* Oc1c(CCl)cc(Cl)cc1Cc1cc(Cl)cc(Cc2cc(Cl)cc(CCl)c2O)c1O | 25.3
* CC[C@@]1(O)C(=O)OCc2c1cc1n(c2=O)Cc2cc3c(OC)cccc3nc2-1 | 1.13
* CC1(C)CCCCC1/C=C/C(CC(O)(C(F)(F)F)C(F)(F)F)=N\Nc1ccc([N+](=O)[O-])cc1[N+](=O)[O-] (stereo not given) | 4.7
* COc1cc2c3c(n(CCCNC(C)(C)CO)c(=O)c2cc1OC)-c1cc2c(cc1C3=O)OCO2 | 0.66

* * *

# System: OVCAR-5 ovarian
# Experimental protocol: NCI tumour cell line growth inhibition, 48 h; in the data active = GI50 below about 0.43 µM; inactive = the rest
Labels: active, inactive

• CC(C)[C@]12O[C@H]1[C@@H]1O[C@]13[C@]1(O[C@H]1C[C@H]1C4=C(CC[C@@]13C)C(=O)OC4)[C@@H]2OC(=O)OC(C)(C)C = active
• Nc1n[nH]c2ccc([C@H]3[C@@H]4C5CCC(C5)[C@@H]4c4c(ccc5[nH]ncc45)N3S(=O)(=O)C3CC3)cc12 (some centres not stated) = active
• COc1ncnn2ccc(-c3cnc4nc(C)n(Cc5nnc(C(C)F)o5)c4c3)c12 (configuration not stated) = active
• CCN1C2=C(SC(=S)C1=C1SC(C(=O)c3ccccc3)=C(C(=O)c3ccccc3)S1)SC(=Nc1ccccc1)C2=O = inactive
• O=C(NC(=S)Nc1ccc(-c2nc3ccccc3[nH]2)cc1)c1ccc2ccccc2c1 = inactive
• CCOC(=O)Cc1csc(Nc2nc(O)c(C3=c4ccccc4=NC3=O)s2)n1 = inactive
• O=C([CH-]C(=O)c1ccccc1)c1ccccc1.O=C([CH-]C(=O)c1ccccc1)c1ccccc1.[CH2-]CCC.[CH2-]CCC.[Sn+4] = inactive

* * *

Measured TGI by item
# Tested on: MALME-3M melanoma
# Experimental protocol: NCI tumour cell line growth inhibition, 48 h
Property measured: TGI

* COCN1C(=O)[C@@H]2CCCN2C(=O)c2ccc(Cl)cc21 | > 100 µM
* CC1OC(n2ccc3ccc([N+](=O)[O-])cc32)C(O)C(O)C1O (stereo unspecified) | > 100 µM
* Nc1c2ccccc2nc2nccnc12 | > 100 µM
* CC1=CC=C2C(C)(C)CC[C@@H]3OC(=O)[C@H]1[C@]23C | > 100 µM
* CC(C)[C@]12O[C@H]1[C@@H]1O[C@]13[C@]1(O[C@H]1C[C@H]1C4=C(CC[C@@]13C)C(=O)OC4)[C@@H]2OC(=O)OC(C)(C)C | 0.0555 µM
* Cc1ccc([N+](=O)[O-])cc1S(=O)(=O)Nc1ccc(C(=O)/C=C/c2ccccc2)cc1 | 39.5 µM
* Clc1ccc(-c2cn3c(nc4ccccc43)c(/C=C/c3cccs3)n2)cc1 | > 100 µM
* COc1cc(C)cc(C(=O)OCc2ccccc2)c1C1=C(Cl)C(=O)C(Cl)=CC1=O | > 10 µM
* COc1ncnn2ccc(-c3cnc4nc(C)n(Cc5nnc(C(C)F)o5)c4c3)c12 (stereo unspecified) | 0.75 µM
* O=C1CNC(=O)N1 | > 1120 µM
* CC(C)(C)OC(=O)CCC1NC(=O)[C@@H]2Cc3c([nH]c4ccccc34)C(c3ccccc3)N2C1=O (stereo partly specified) | 43.4 µM

* * *

Listed here: items and their measured TGI.
# Tested on: 786-0 renal
# Experimental protocol: NCI tumour cell line growth inhibition, 48 h
Property measured: TGI (µM)

* CCOC(=O)C1C(c2ccccc2)C2(C#N)C(=N)OC1(C)C2(C#N)C#N (stereo unspecified) | 26.4
* Cc1ccc([N+](=O)[O-])cc1S(=O)(=O)Nc1ccc(C(=O)/C=C/c2ccccc2)cc1 | 33.1
* CCC1CN2CCc3cc(OC)c(OC)cc3C2CC1CC1c2cc(OC)c(OC)cc2CCN1C(=O)C(Cc1c[nH]c2ccccc12)NC(=O)OC(C)(C)C (stereo unspecified) | 6.74
* CCOC(=O)c1c2c(n(Cc3ccccc3)c1C)-c1nc[nH]c1C(=O)C2=O | 32.1
* O=C(CSc1nc2ccc([N+](=O)[O-])cc2[nH]1)Nc1ccc([N+](=O)[O-])cc1 | 13.5
* O=C(NCCNc1nccc(-c2c(-c3ccc(F)cc3)nc3sccn23)n1)Nc1cccc(C(F)(F)F)c1 | 24.9
* O=C(/C=C/c1cccnc1)c1ccccc1 | 21.4
* CC12OC(C(=O)C13CC3)C1C(=O)c3cccc(O)c3C(=O)C12 (stereo unspecified) | 19.2
* CO[C@@H]1C[C@H]2[C@@H]3CC[C@H]([C@@H](C)COC(C)=O)[C@@]3(C)CC[C@@H]2[C@@]2(C)CC[C@H]3C[C@]312 | 30.8
* CC[n+]1c(/C=C/c2ccc(N3CCCC3)cc2)cccc1/C=C/c1ccc(N2CCCC2)cc1 | 1.2

* * *

Entries and their TGI values follow.
# System: KM12 colon
# Experimental protocol: NCI tumour cell line growth inhibition, 48 h
Property measured: TGI

- NC(=S)Nc1c(S(N)(=O)=O)cc(S(N)(=O)=O)c(Cl)c1Cl: > 100 µM
- Cc1ccccc1C(C#N)/C(=N/NC(N)=S)C(=O)Nc1c(C)cccc1C (stereo unspecified): > 100 µM
- Cc1ccc(S(=O)(=O)NN=C2C(C)CC(C(C)(C)C)CC2C)cc1 (stereo unspecified): 31.4 µM
- O=C1CCN(CCC(F)(F)C(F)(F)C(F)(F)C(F)(F)F)C(=S)N1: > 100 µM
- O=C1NC(=N[C@@H]2C[C@H]2c2ccccc2)S/C1=C\c1ccc2ncccc2c1: > 12.7 µM
- Cc1nn(C(=O)c2ccc(Cl)cc2)c2c1C(c1ccccc1)SC(N)=N2 (stereo unspecified): > 10 µM
- CC(=O)OC1C(COC(N)=O)OC(n2c(-c3ccc(C)cc3)cc(-c3ccccc3)c(C#N)c2=O)C(OC(C)=O)C1OC(C)=O (stereo unspecified): > 100 µM
- COC(=O)CC12CC(NC(=O)c3csc([C@@H](C[C@H](C(C)C)N(C)C(=O)[C@@H](NC(=O)[C@H]4CCCCN4C)C(C)C)OC(C)=O)n3)(C1)C2: > 33.3 µM
- O=C(/C=C/c1cccnc1)c1ccccc1: 6.87 µM
- CCCC(c1cc(C(C)(C)C)c(O)cc1C)c1cc(C(C)(C)C)c(O)cc1C: 11.1 µM
- Cn1cnc([N+](=O)[O-])c1Sc1nccn1-c1ccccc1: > 100 µM
- O=C(O)[C@@]1(Cc2ccc(O)cc2)C[C@@H]2Cc3ccccc3N2N1: > 100 µM
- COc1ccc(C(=O)O[C@@H]2CCN3CC[C@H](C)[C@H]23)cc1: > 100 µM
- ClCc1nnc2n1-c1ccc(Cl)cc1SC2: 15.1 µM
- COc1cc(CN(C)N2C(=O)c3cccc4cc([N+](=O)[O-])cc(c34)C2=O)cc(OC)c1OC: > 100 µM
- CCCCN(CCCC)C(=O)C(=O)C(C(=O)C(=O)OC)c1nc2ccccc2o1 (stereo unspecified): > 100 µM
- C=CC[C@H](O)[C@@](NC(=O)OCc1ccccc1)(Sc1ccc(C)cc1)C(F)(F)F: > 100 µM
- Cc1cc(S(=O)(=O)Nc2n[nH]c(-c3ccc(Cl)cc3)c2C#N)c(S)cc1Cl: > 100 µM
- C=CC(C)(C)c1c(OC)oc2ccc(OC)c(C)c2c1=O: > 100 µM
- O=[N+]([O-])c1cccc(C=NC23CC4CC(CC(C4)C2)C3)c1: > 100 µM
- CCCCN(CCCC)C1(c2cc3ccccc3s2)CCCCC1: 30.4 µM

* * *

# Test system: RXF 393 renal
# Experimental protocol: NCI tumour cell line growth inhibition, 48 h
Property measured: TGI

• COc1ccc(NS(=O)(=O)c2ccc3ncn(NS(=O)(=O)c4ccc(I)cc4)c(=O)c3c2)cc1 = > 100 µM
• CCOC(=O)c1c2c(n(Cc3ccccc3)c1C)-c1nc[nH]c1C(=O)C2=O = 23.2 µM
• CC1(C)CCCC2(C)[C@@H]1CC[C@]13C[C@](C)(CC[C@@H]21)[C@@H]3CO (stereo partly specified) = > 100 µM
• Cc1cc(N(C)C)ccc1N=Nc1ccc2ncccc2c1 = > 100 µM
• O=C1NC(=N[C@@H]2C[C@H]2c2ccccc2)S/C1=C\c1ccc2ncccc2c1 = 4.84 µM
• Cl.Fc1c[c-]c(-c2ccccn2)c(F)c1.[Pt].c1ccc([PH+](c2ccccc2)c2ccccc2[PH+](c2ccccc2)c2ccccc2)cc1 = 0.296 µM
• O=C(NCCNc1nccc(-c2c(-c3ccc(F)cc3)nc3sccn23)n1)Nc1cccc(C(F)(F)F)c1 = 6.05 µM
• O=C(CC(O)(C(F)(F)Cl)C(F)(F)Cl)CC(O)(C(F)(F)Cl)C(F)(F)Cl = 6.08 µM
• COc1ccc(/C=C2\N=C(N3CCOCC3)NC2=O)cc1 = > 100 µM
• CCOC(=O)c1cc2c(OC)cc(OC)cc2oc1=O = > 100 µM
• O=C(Cc1c(C(=O)Nc2ccccc2)sc(C(=O)Nc2ccccc2)c1CC(=O)Nc1ccccc1)Nc1ccccc1 = > 100 µM
